- Test Description: Bioavailability in dog at 2 mg/kg, iv after 24 hrs by HPLC/MS/MS analysis
- Type: ADME, organism-based, Canis lupus familiaris
- Experimental Parameters: in vivo
Assay Metric: bioavailability
The answer consists of two parts: a number and, after it, its unit.

Problem: // query bioavailability value for entry COc1cccc(C(=O)Nc2ccc(OCCN3CCOCC3)c(-c3ccnn3C)c2)c1
Solution: 45%

###

Some compounds, each annotated with its measured bioavailability.
- Test Description: Bioavailability in Sprague-Dawley rat at 2 mg/kg, iv after 24 hrs by HPLC/MS/MS analysis
- Format: ADME, organism-based
- Experimental Parameters: in vivo
Field: numeric (%). Do not append units.

Below: 3 compounds and their reported bioavailability.
1) Cn1nccc1-c1cc(NC(=O)c2ccc(F)cc2F)ccc1OCCN1CCOCC1
22
2) Cn1nccc1-c1cc(NC(=O)c2cccc(C(F)(F)F)c2)ccc1OCCN1CCOCC1
27
3) Cn1nccc1-c1cc(NC(=O)c2ccc(C(F)(F)F)cc2)ccc1OCCN1CCCC1
43

Switching to the query record.
Problem: Quick one: bioavailability for COc1cccc(C(=O)Nc2ccc(OCCN3CCOCC3)c(-c3ccnn3C)c2)c1 [TEMANOGREL] ?
Solution: 10
